measuredOn: human CCR8 (human, UniProt P51685 1-355)
assayProcedure: cell-based or functional assay
Hi there, I'd appreciate the recorded residual hCCL1 (100 nM) Gi2 response, protocol #2, mAb 0.08 µg/mL for every entry that follows.
Give your result as the value with the unit written after it.

Solved cases below.
# binder, measuredResult
measured = [
    ("anti-CCR8 mAb 1-17 (antibody, V domains shown, Murine hybridoma mAb) VH: QVQLQQPGSELVRPGASVKLSCKASGYTFTSYWMHWVKQRPGQGLEWIGNIWPGSASTNYDEKFKNKATLTVDTSSSTAYMQLSSLTSEDSAVYYCIRGGKGAMDYWSQGTSVTVSS VL: DVVMTQIPLSLPVSLGDQASISCRSSQSLENSYGNTYLNWYLQKPGQSPQLLIYRVSNRFSGVLDRFSGSGSGTDFTLKISRVEAEDLGVYFCLQVTHVPPTFGAGTKLELK", "99%"),
    ("anti-CCR8 mAb 1-22 (antibody, human IgG1, kappa, V domains shown, Humanized mAb, human IgG1 / kappa) VH: EVQLLESGGGLVQPGGSLRLSCAASGFTFNAYAMNWVRQAPGKGLEWVARIRSKSNDYATYYGDSVKGRFTISRDNSKNTLYLQMNSLRAEDTAVYYCVRGREAYYRYDGGYYAMDVWGQGTTVTVSS VL: DIVMTQSPLSLPVTPGEPASISCRSSKSLLHSNGNTYLYWFLQKPGQSPQLLIYRVSNLASGVPDRFSGSGSGTDFTLKISRVEAEDVGVYYCMQHREYPFTFGQGTKLEIKR", "94%"),
]

Documented residual hCCL1 (100 nM) Gi2 response, protocol #2, mAb 0.08 µg/mL of anti-CCR8 mAb 1-7 (antibody, V domains shown, Murine hybridoma mAb) VH: QVHLVETGGGLVRPGNSLKLSCVTSGFTLSNYRMHWLRQPPGKRLEWIAVIKVKSDNYGANYAESVKGRFTISRDDAKSSVYLQMNRLREEDTATYYCSRPDGFSPFVYWGQGTLVTVSA VL: DIKMTQSPSSMYASLGERVTITCKASQDINSYLSWFQQKPGKSPKTLIYRANRLVDGVPSRFSGSGSGQDYFLTISSLEYEDMGIYYCLQYGEFPPTFGAGTKLELK : 73%
